For each entry below, report its [3H]IP, analog Alone (10 μM) value.
- test system: UniProtKB P24053
- protocol details: [3H]inositol phosphates in NMB-R transfected cells (alone or NMB-stimulated)
- Assay type: cell-based
- Set-up: a full length NMB-preferring bombesin receptor clone generated from rat esophagus; expressed in transfected cells
- measurement setup: NMB-R transfected cells; analog 10 μM alone; control 13 ± 3
Where a SMILES comes first, the peptide text is derived from it. Bridges are numbered along the chain shown (N, C = ends). [ ]: non-standard residue; d: D form. 2Nal = N[C@@H](Cc1ccc2ccccc2c1)C(=O)O; d2Nal = N[C@H](Cc1ccc2ccccc2c1)C(=O)O
Numbers only, in dym × 10^3.

>  <compound>
CC(C)[C@@H]1NC(=O)[C@H](CCCCN)NC(=O)[C@@H](Cc2c[nH]c3ccccc23)NC(=O)[C@H](Cc2ccc(O)cc2)NC(=O)[C@@H](NC(=O)[C@H](N)Cc2ccc3ccccc3c2)CSSC[C@@H](C(=O)N[C@H](Cc2ccc3ccccc3c2)C(N)=O)NC1=O [Analog #8] (H-[d2Nal]CY[dW]KVC[d2Nal]-NH2; disulfide 2-7)

>  <measured property>
[3H]IP, analog Alone (10 μM)

>  <test value>
10

$$$$
>  <compound>
CC(C)[C@@H]1NC(=O)[C@H](CCCCN)NC(=O)[C@@H](Cc2c[nH]c3ccccc23)NC(=O)[C@H](Cc2ccc(O)cc2)NC(=O)[C@@H](NC(=O)[C@H](N)Cc2ccc3ccccc3c2)CSSC[C@H](C(=O)N[C@@H](Cc2ccc3ccccc3c2)C(N)=O)NC1=O [Analog #11] (H-[d2Nal]CY[dW]KV[dC][2Nal]-NH2; disulfide 2-7)

>  <measured property>
[3H]IP, analog Alone (10 μM)

>  <test value>
10

$$$$
>  <compound>
CC(C)[C@@H]1NC(=O)[C@H](CCCCN)NC(=O)[C@@H](Cc2c[nH]c3ccccc23)NC(=O)[C@H](Cc2ccc(O)cc2)NC(=O)[C@H](NC(=O)[C@H](N)Cc2ccc3ccccc3c2)CSSC[C@@H](C(=O)N[C@@H](Cc2ccc3ccccc3c2)C(N)=O)NC1=O [Analog #10] (H-[d2Nal][dC]Y[dW]KVC[2Nal]-NH2; disulfide 2-7)

>  <measured property>
[3H]IP, analog Alone (10 μM)

>  <test value>
10

$$$$

Now for another entry.
**Q:** Input CC(C)[C@@H]1NC(=O)[C@H](CCCCN)NC(=O)[C@@H](Cc2ccc3ccccc3c2)NC(=O)[C@H](Cc2ccc(O)cc2)NC(=O)[C@@H](NC(=O)[C@H](N)Cc2ccc3ccccc3c2)CSSC[C@@H](C(=O)N[C@@H](Cc2ccc3ccccc3c2)C(N)=O)NC1=O [Analog #17] (H-[d2Nal]CY[d2Nal]KVC[2Nal]-NH2; disulfide 2-7) , output reported [3H]IP, analog Alone (10 μM).
**A:** 12

----------
- test system: rat NMB receptor (Rattus norvegicus)
- Construct: a full length NMB-preferring bombesin receptor clone generated from rat esophagus; expressed in transfected cells
- Sequence (P24053 1-390): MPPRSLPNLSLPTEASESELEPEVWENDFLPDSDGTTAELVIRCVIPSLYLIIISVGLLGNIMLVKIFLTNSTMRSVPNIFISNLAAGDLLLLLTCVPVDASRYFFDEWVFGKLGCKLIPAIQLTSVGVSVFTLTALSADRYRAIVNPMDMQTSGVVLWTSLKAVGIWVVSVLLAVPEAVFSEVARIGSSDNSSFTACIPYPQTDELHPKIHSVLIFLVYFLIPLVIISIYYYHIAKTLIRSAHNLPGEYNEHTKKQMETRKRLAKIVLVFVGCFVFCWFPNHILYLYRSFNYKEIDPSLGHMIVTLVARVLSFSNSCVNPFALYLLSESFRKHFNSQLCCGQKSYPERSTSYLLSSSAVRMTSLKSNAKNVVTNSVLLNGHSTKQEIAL
- protocol details: Binding of 125I-[D-Tyr0]NMB to NMB-R transfected BALB 3T3 cells
- measurement setup: NMB-R transfected BALB 3T3 cells; Ki by Cheng method; read-out: Ki 125I-NMB Binding, NMB Receptor, Transfected Cells
Where a SMILES comes first, the peptide text is derived from it. Bridges are numbered along the chain shown (N, C = ends). [ ]: non-standard residue; d: D form. 2Nal = N[C@@H](Cc1ccc2ccccc2c1)C(=O)O; d2Nal = N[C@H](Cc1ccc2ccccc2c1)C(=O)O
For each entry below, report its Ki value.
Answers are plain numbers, in µM.

Study these solved cases before continuing.
>  <compound>
CC(C)[C@@H]1NC(=O)[C@H](Cc2c[nH]cn2)NC(=O)[C@@H](Cc2c[nH]c3ccccc23)NC(=O)[C@H](Cc2ccc(O)cc2)NC(=O)[C@@H](NC(=O)[C@H](N)Cc2ccc3ccccc3c2)CSSC[C@@H](C(=O)N[C@@H](Cc2ccc3ccccc3c2)C(N)=O)NC1=O [Analog #14] (H-[d2Nal]CY[dW]HVC[2Nal]-NH2; disulfide 2-7; N-terminus assumed)

>  <units symbol>
µM

>  <test value>
9.86

$$$$
>  <compound>
C[C@@H](O)[C@H](NC(=O)[C@@H]1CSSC[C@H](NC(=O)[C@H](N)Cc2ccc3ccccc3c2)C(=O)N[C@@H](Cc2ccc(O)cc2)C(=O)N[C@H](Cc2c[nH]c3ccccc23)C(=O)N[C@@H](CCCCN)C(=O)N[C@@H](Cc2ccc3ccccc3c2)C(=O)N1)C(N)=O [Analog #2]

>  <units symbol>
µM

>  <test value>
0.772

$$$$

Now for another entry.
**Q:** Report its Ki with rat NMB receptor (Rattus norvegicus) as the test system: CC(C)[C@@H]1NC(=O)[C@H](CCCCN)NC(=O)[C@@H](Cc2c[nH]c3ccccc23)NC(=O)[C@H](Cc2ccc(O)cc2)NC(=O)[C@@H](NC(=O)[C@H](N)Cc2ccc3ccccc3c2)CSSC[C@@H](C(=O)N[C@H](Cc2ccc3ccccc3c2)C(N)=O)NC1=O [Analog #8] (H-[d2Nal]CY[dW]KVC[d2Nal]-NH2; disulfide 2-7)
**A:** 1.92
